Origin of the recorded values: patent US10011609B2

Test Target: GPR40 (Homo sapiens)
Construct: host or cells: HEK293 (ChemiBrite cell line)
Sequence (O14842 whole entry, species assumed): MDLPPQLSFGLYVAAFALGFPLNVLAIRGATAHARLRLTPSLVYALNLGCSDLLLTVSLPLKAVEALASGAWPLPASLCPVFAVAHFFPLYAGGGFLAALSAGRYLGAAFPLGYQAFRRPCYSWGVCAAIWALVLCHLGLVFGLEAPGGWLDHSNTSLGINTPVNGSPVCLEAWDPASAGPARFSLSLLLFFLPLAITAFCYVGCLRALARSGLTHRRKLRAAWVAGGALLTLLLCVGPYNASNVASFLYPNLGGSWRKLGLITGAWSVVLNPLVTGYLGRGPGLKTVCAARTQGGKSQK
Test Description: Promoter-luciferase assay to measure GPR40 activation (HEK293 cells stably transfected with GPR40 cDNA)
Assay type: cell-based
Particulars: HEK293 cells stably transfected with GPR40, 5xSRE-luciferase; read-out: EC50 in Luciferase assay
# EC50 listing for each entry below
Express it in nM; write the number only.

Illustrative cases are given below, each with its answer.
Compound	EC50 [nM]
CC#C[C@@H](CC(=O)O)c1ccc(OCc2cccc(CN3CCc4ccccc43)c2)cc1	0.7
CC#C[C@@H](CC(=O)O)c1ccc(OCc2cccc(CN3CCc4sc(C(=O)N(C)C)cc4C3)c2)cc1	9
CC#C[C@@H](CC(=O)O)c1ccc(OCc2cccc(CN3CCc4sc(C5CC5)cc4C3)c2)cc1	0.8
CC#C[C@@H](CC(=O)O)c1ccc(OCc2cccc(CN3CC4CC(C3)O4)c2)cc1	5.3

Problem: // returns reported EC50 for input `CC#C[C@@H](CC(=O)O)c1ccc(OCc2cccc(CN3CCc4sc(C=O)cc4C3)c2)cc1`
Solution: 4.8

Problem: Then `CC#C[C@@H](CC(=O)O)c1ccc(OCc2cccc(CN3CCc4ncccc4C3)c2)cc1` ?
Solution: 11.9

Problem: Then CC#C[C@@H](CC(=O)O)c1ccc(OCc2cccc(CN3CCCC3c3ccccc3)c2)cc1 (some centres unmarked) ?
Solution: 3

Problem: Then `CC#C[C@@H](CC(=O)O)c1ccc(OCc2cccc(CN3CCc4oc(C5CC5)nc4C3)c2)cc1` ?
Solution: 4.1
